FYI, the data here is from paper PMC8989888.

Target: SARS-CoV-2 3CL protease (Severe acute respiratory syndrome coronavirus 2, UniProt P0DTD1)
Format: biochemical
Conditions: 10 µM compound
Binary call on Inhibition at 10 µM with cut-off 20%: strictly below means 1.0, and equality or higher means 0.0.

Here's what some known entries look like.
Compound	System under test	Group label
O=C(CCl)COc1ccc(Cl)cc1	SARS-CoV-2 3CL protease (Severe acute respiratory syndrome coronavirus 2, UniProt P0DTD1)	0.0
CC1C(=O)Nc2ccc(C(=O)CCl)cc21 (centres unmarked)	SARS-CoV-2 3CL protease (Severe acute respiratory syndrome coronavirus 2, UniProt P0DTD1)	1.0
NC(=O)CCc1ccc(C(=O)CCl)cc1	SARS-CoV-2 3CL protease (Severe acute respiratory syndrome coronavirus 2, UniProt P0DTD1)	0.0
Nc1cccnc1S	SARS-CoV-2 3CL protease (Severe acute respiratory syndrome coronavirus 2, UniProt P0DTD1)	0.0
Cc1ccccc1CN1CCN(C(=O)CCl)CC1	SARS-CoV-2 3CL protease (Severe acute respiratory syndrome coronavirus 2, UniProt P0DTD1)	1.0

**Query** I wonder whether N#C/C=C/S(=O)(=O)c1ccc(Cl)cc1 has Inhibition at 10 µM below 20%. Can you tell?
**Result** 1.0

**Query** Dear colleague, could you confirm whether Inhibition at 10 µM of CN1Cc2cc(C(=O)CCl)ccc2NC1=O falls below 20%? Thanks.
**Result** 1.0

**Query** Quick check: Inhibition at 10 µM of COC1(CNC(=O)c2cccnc2S)CCOCC1 under 20%?
**Result** 1.0

**Query** Does the reported Inhibition at 10 µM of O=C(CCl)N1CCN(Cc2cccs2)CC1 stay below 20%?
**Result** 1.0

**Query** Just wondering, is Inhibition at 10 µM of Cc1cc(C(=O)CCl)c(C)n1-c1ncn[nH]1 below 20%?
**Result** 0.0

**Query** Dear colleague, could you confirm whether Inhibition at 10 µM of Cc1ccccc1CN1CCCN(C(=O)CCl)CC1 falls below 20%? Thanks.
**Result** 1.0
